ASSAY COMMENT: Rising single dose (RSD) study: pharmacokinetics of orally administered COMPOUND 1 in healthy subjects
Format: in vivo, human
CONDITION DETAILS: male, human, plasma, po, 10 mg, single oral dose 10 mg, n=6; value (range); read-out: Tmax
PARAMETER MEASURED: Tmax (h)
Please state the figure in h; there is no need to write the unit.

molecule "CCOC(=O)N[C@@H]1CC[C@@H]2[C@@H](C1)C[C@H]1C(=O)O[C@H](C)[C@H]1[C@H]2/C=C/c1ccc(-c2cccc(F)c2)cn1" , Tmax observed: 1.5

###

ASSAY COMMENT: Rising single dose (RSD) study: pharmacokinetics of orally administered COMPOUND 1 in healthy subjects
Format: in vivo, human
CONDITION DETAILS: male, human, plasma, po, 5 mg, single oral dose 5 mg, n=6; mean (CV %); read-out: AUC(0-72 hr)
Procedure: Phase I clinical studies were designed to evaluate the pharmacokinetics of COMPOUND 1 in healthy subjects after rising single and multiple doses. […] In the single-dose study, 50 healthy males were enrolled into 6 sequential cohorts and randomized to receive in ascending dose manner placebo (n=2-3/group) or oral COMPOUND 1 (0.25, 1, 5, 10, 20 and 40 mg; n=5-6/group). […] Measured and derived pharmacokinetic parameters were used to assess the pharmacokinetic profile. […]
PARAMETER MEASURED: AUC(0-t) (ng·h/mL)
Please state the figure in ng·h/mL; there is no need to write the unit.

compound "CCOC(=O)N[C@@H]1CC[C@@H]2[C@@H](C1)C[C@H]1C(=O)O[C@H](C)[C@H]1[C@H]2/C=C/c1ccc(-c2cccc(F)c2)cn1" , AUC(0-t) observed: 740
